# MEASURED TARGET: Cannabinoid receptor (Mus musculus) (UniProt P47746+P47936)
# Sequence (P47746 whole entry, looked up): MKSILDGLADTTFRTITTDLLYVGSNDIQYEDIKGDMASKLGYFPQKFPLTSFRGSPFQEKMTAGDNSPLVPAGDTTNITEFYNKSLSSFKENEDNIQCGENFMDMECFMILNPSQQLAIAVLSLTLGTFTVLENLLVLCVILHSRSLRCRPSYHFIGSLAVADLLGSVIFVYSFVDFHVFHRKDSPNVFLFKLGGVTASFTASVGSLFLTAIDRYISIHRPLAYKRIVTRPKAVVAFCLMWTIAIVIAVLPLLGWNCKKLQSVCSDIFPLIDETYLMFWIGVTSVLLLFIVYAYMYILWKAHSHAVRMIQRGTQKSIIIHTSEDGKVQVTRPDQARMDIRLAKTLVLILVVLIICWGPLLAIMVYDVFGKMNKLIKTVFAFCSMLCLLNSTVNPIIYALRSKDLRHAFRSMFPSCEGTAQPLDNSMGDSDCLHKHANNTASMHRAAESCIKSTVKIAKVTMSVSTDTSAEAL
# Sequence (P47936 whole entry, looked up): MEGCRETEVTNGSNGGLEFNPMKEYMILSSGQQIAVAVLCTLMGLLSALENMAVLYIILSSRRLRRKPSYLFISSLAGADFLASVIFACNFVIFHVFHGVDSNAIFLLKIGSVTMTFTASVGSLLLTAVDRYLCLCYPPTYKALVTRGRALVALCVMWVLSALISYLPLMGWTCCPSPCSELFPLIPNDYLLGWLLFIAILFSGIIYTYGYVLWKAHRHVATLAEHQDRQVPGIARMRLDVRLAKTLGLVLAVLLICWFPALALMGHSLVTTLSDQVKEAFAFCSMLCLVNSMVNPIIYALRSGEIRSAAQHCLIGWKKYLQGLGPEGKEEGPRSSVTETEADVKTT
# ASSAY PROTOCOL: Agonist activity at cannabinoid receptor in ICR mouse vas deferens assessed as inhibition of electrically induced contractions at 8.1 x 10^-6 M after 10 mins in presence of CB1 antagonist AM251 relative to control
# Type: protein assay
This section presents molecules with their documented inhibition values.
Quick note: give the figure in %, leave out the unit.

Worked set:
SMILES STRING	RESULT UNITS	inhibition
O=C(c1cccc(Cl)c1Cl)n1nc(OCCN2CCCC2)c2ccccc21	%	44.8
COc1cc(C(=O)n2nc(OCCN3CCCC3)c3ccccc32)cc(OC)c1OC	%	42.4
O=C(c1cccc2ccccc12)n1nc(OCCN2CCCCC2)c2ccccc21	%	27.8

Given "Cc1cc(C)c(C(=O)n2nc(OCCN3CCCCC3)c3ccccc32)c(C)c1" , state its recorded inhibition. 19.8

Given "COc1ccc(CC(=O)n2nc(OCCCN3CCCCC3)c3ccccc32)cc1" , state its recorded inhibition. 61.9

Given "O=C(c1cccc2ccccc12)n1nc(OCCCN2CCCCC2)c2ccccc21" , state its recorded inhibition. 2.7

Given "O=C(c1cccc(Cl)c1Cl)n1nc(OCCN2CCCCC2)c2ccccc21" , state its recorded inhibition. 23.5

* * *

# MEASURED TARGET: Cannabinoid receptor (Mus musculus) (UniProt P47746+P47936)
# ASSAY PROTOCOL: Agonist activity at cannabinoid receptor in ICR mouse vas deferens assessed as inhibition of electrically induced contractions at 9 x 10^-7 M after 10 mins in presence of CB2 antagonist AM630 relative to control
# Format: protein assay
OUTCOME MEASURE: inhibition (%)
Quick note: give the figure in %, leave out the unit.

Worked set:
SMILES STRING	inhibition [%]
O=C(c1ccccc1OCc1ccccc1)n1nc(OCCCN2CCCCC2)c2ccccc21	-0.5
Cc1c(C(=O)c2cccc3ccccc23)c2cccc3c2n1[C@H](CN1CCOCC1)CO3	22
O=C(c1cccc(Cl)c1Cl)n1nc(OCCCN2CCCCC2)c2ccccc21	10.4
O=C(c1ccccc1OCc1ccccc1)n1nc(OCCN2CCCC2)c2ccccc21	2.7
O=C(c1cccc(F)c1F)n1nc(OCCN2CCCC2)c2ccccc21	3.7
COc1cc(C(=O)n2nc(OCCN3CCCC3)c3ccccc32)cc(OC)c1OC	4.1
O=C(Cc1ccc(Cl)cc1)n1nc(OCCCN2CCCCC2)c2ccccc21	2.4
O=C(c1cccc(Cl)c1Cl)n1nc(OCCN2CCCCC2)c2ccccc21	2.4
O=C(c1ccccc1Cl)n1nc(OCCN2CCCC2)c2ccccc21	3.5
O=C(c1c(F)ccc(F)c1F)n1nc(OCCN2CCCCC2)c2ccccc21	4.4

Given "O=C(c1cccc2ccccc12)n1nc(OCCCN2CCCCC2)c2ccccc21" , state its recorded inhibition. 0.1

Given "COc1ccc(CC(=O)n2nc(OCCN3CCCC3)c3ccccc32)cc1" , state its recorded inhibition. 6.4

Given "O=C(c1ccccc1Cl)n1nc(OCCCN2CCCCC2)c2ccccc21" , state its recorded inhibition. 6.2

Given "O=C(c1cccc2ccccc12)n1nc(OCCN2CCCCC2)c2ccccc21" , state its recorded inhibition. -2.6

Given "COc1ccc(CC(=O)n2nc(OCCCN3CCCCC3)c3ccccc32)cc1" , state its recorded inhibition. -1.4

Given "O=C(c1cccc(Cl)c1Cl)n1nc(OCCN2CCCC2)c2ccccc21" , state its recorded inhibition. 7.9

Given "O=C(c1cccc(Cl)c1F)n1nc(OCCCN2CCCCC2)c2ccccc21" , state its recorded inhibition. -3.8

Given "O=C(c1cccc2ccccc12)n1nc(OCCCN2CCCC2)c2ccccc21" , state its recorded inhibition. 4

* * *

# MEASURED TARGET: Cannabinoid receptor (Mus musculus) (UniProt P47746+P47936)
# ASSAY PROTOCOL: Agonist activity at cannabinoid receptor in ICR mouse vas deferens assessed as inhibition of electrically induced contractions at 1.82 x 10^-5 M after 10 mins in presence of CB1 antagonist AM251 relative to control
# Format: protein assay
Class membership depends on inhibition alone; the intervals are Low = under 50%, Mid = from 50% up to 80%, High = 80% and over

SMILES STRING	MEASURED TARGET	CLASS
O=C(c1ccccc1Cl)n1nc(OCCCN2CCCCC2)c2ccccc21	Cannabinoid receptor (Mus musculus) (UniProt P47746+P47936)	High
O=C(c1cccc2ccccc12)n1nc(OCCCN2CCCC2)c2ccccc21	Cannabinoid receptor (Mus musculus) (UniProt P47746+P47936)	High
O=C(c1cccc(Cl)c1Cl)n1nc(OCCCN2CCCCC2)c2ccccc21	Cannabinoid receptor (Mus musculus) (UniProt P47746+P47936)	High
O=C(c1cccc2ccccc12)n1nc(OCCCN2CCCCC2)c2ccccc21	Cannabinoid receptor (Mus musculus) (UniProt P47746+P47936)	Low
O=C(c1cccc(Cl)c1Cl)n1nc(OCCN2CCCCC2)c2ccccc21	Cannabinoid receptor (Mus musculus) (UniProt P47746+P47936)	Low
COc1cc(C(=O)n2nc(OCCN3CCCC3)c3ccccc32)cc(OC)c1OC	Cannabinoid receptor (Mus musculus) (UniProt P47746+P47936)	Mid
O=C(c1cccc(Cl)c1F)n1nc(OCCCN2CCCCC2)c2ccccc21	Cannabinoid receptor (Mus musculus) (UniProt P47746+P47936)	Mid
Cc1cc(C)c(C(=O)n2nc(OCCN3CCCCC3)c3ccccc32)c(C)c1	Cannabinoid receptor (Mus musculus) (UniProt P47746+P47936)	Low
Cc1c(C(=O)c2cccc3ccccc23)c2cccc3c2n1[C@H](CN1CCOCC1)CO3	Cannabinoid receptor (Mus musculus) (UniProt P47746+P47936)	Mid
O=C(c1ccccc1OCc1ccccc1)n1nc(OCCN2CCCC2)c2ccccc21	Cannabinoid receptor (Mus musculus) (UniProt P47746+P47936)	Mid

Band assignment needed for "COc1ccc(CC(=O)n2nc(OCCCN3CCCCC3)c3ccccc32)cc1" please. High

Band assignment needed for "O=C(c1ccccc1OCc1ccccc1)n1nc(OCCCN2CCCCC2)c2ccccc21" please. Mid

* * *

# MEASURED TARGET: Cannabinoid receptor (Mus musculus) (UniProt P47746+P47936)
# ASSAY PROTOCOL: Agonist activity at cannabinoid receptor in ICR mouse vas deferens assessed as inhibition of electrically induced contractions at 10^-7 M after 10 mins in presence of CB1 antagonist AM251 relative to control
# Type: protein assay
This section presents compounds with their documented inhibition values.
Quick note: give the figure in %, leave out the unit.

SMILES STRING	RESULT UNITS	inhibition
O=C(c1cccc2ccccc12)n1nc(OCCN2CCCCC2)c2ccccc21	%	-7.7
O=C(c1cccc2ccccc12)n1nc(OCCCN2CCCC2)c2ccccc21	%	-6.7
Cc1c(C(=O)NN2CCCCC2)nn(-c2ccc(Cl)cc2Cl)c1-c1ccc(I)cc1	%	-7.3

Given "O=C(c1ccccc1Cl)n1nc(OCCN2CCCC2)c2ccccc21" , state its recorded inhibition. -2.8

Given "O=C(c1cccc(Cl)c1F)n1nc(OCCCN2CCCCC2)c2ccccc21" , state its recorded inhibition. -7.1

* * *

# MEASURED TARGET: Cannabinoid receptor (Mus musculus) (UniProt P47746+P47936)
# ASSAY PROTOCOL: Agonist activity at cannabinoid receptor in ICR mouse vas deferens assessed as inhibition of electrically induced contractions at 10^-7 M after 10 mins relative to control
# Format: protein assay
This section presents compounds with their documented inhibition values.
Quick note: give the figure in %, leave out the unit.

Worked set:
SMILES STRING	ENDPOINT VALUE
COc1ccc(COc2nn(CCN(C(C)C)C(C)C)c3ccccc23)cc1	7.5
O=C(c1cccc(Cl)c1Cl)n1nc(OCCN2CCCC2)c2ccccc21	1.6
O=C(c1cccc(Cl)c1F)n1nc(OCCCN2CCCCC2)c2ccccc21	9.6

Given "O=C(c1ccc2ccccc2c1)n1nc(OCCN2CCCCC2)c2ccccc21" , state its recorded inhibition. 0.3

Given "O=C(c1cccc2ccccc12)n1nc(OCCN2CCCCC2)c2ccccc21" , state its recorded inhibition. -0.7

* * *

# MEASURED TARGET: Cannabinoid receptor (Mus musculus) (UniProt P47746+P47936)
# ASSAY PROTOCOL: Agonist activity at cannabinoid receptor in ICR mouse vas deferens assessed as inhibition of electrically induced contractions at 2.7 x 10^-6 M after 10 mins in presence of CB1 antagonist AM251 relative to control
# Assay type: protein assay
Label y for high-side inhibition (at or above 10%) and n for low-side inhibition (below it).

Consider the worked cases shown below.
SMILES STRING	CLASS
O=C(c1c(F)ccc(F)c1F)n1nc(OCCN2CCCCC2)c2ccccc21	y
Cc1c(C(=O)NN2CCCCC2)nn(-c2ccc(Cl)cc2Cl)c1-c1ccc(I)cc1	y

Determine whether this compound has inhibition no lower than 10%: "O=C(c1ccccc1OCc1ccccc1)n1nc(OCCCN2CCCCC2)c2ccccc21" n

Determine whether this compound has inhibition no lower than 10%: "O=C(c1cccc(F)c1F)n1nc(OCCN2CCCC2)c2ccccc21" y

Determine whether this compound has inhibition no lower than 10%: "O=C(c1cccc(Cl)c1F)n1nc(OCCCN2CCCCC2)c2ccccc21" y

Data credit: ChEMBL document CHEMBL4400519
